Reported normalized RNA/DNA level with ligand (log10) is given for each of the following variants.
B1: library; a variant is named by its letters at N, in order (parent)
chain: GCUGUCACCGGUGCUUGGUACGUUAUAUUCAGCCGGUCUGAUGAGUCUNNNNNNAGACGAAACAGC

Variants of: B1
PROTOCOL TEXT: normalized RNA/DNA level with ligand (relative to sTRSVctl = 100) (log10 (% of sTRSVctl)); HEK293T overexpressing SLC46A1; ligand concentration (+) RNA-Seq: 6 mM; higher = less ribozyme self-cleavage, higher mRNA level
PARTICULARS: with (6R,S)-folinic acid; ligand present: yes
Answer using only a numeral; do not append any unit.

Notebook: GCUGUCACCGGUGCUUGGUACGUUAUAUUCAGCCGGUCUGAUGAGUCUAGCUAUAGACGAAACAGC , normalized RNA/DNA level with ligand (log10) read as 2.01

What the record says about GCUGUCACCGGUGCUUGGUACGUUAUAUUCAGCCGGUCUGAUGAGUCUAGGUUCAGACGAAACAGC : normalized RNA/DNA level with ligand (log10) is 2.03

Sure, the documented normalized RNA/DNA level with ligand (log10) for GCUGUCACCGGUGCUUGGUACGUUAUAUUCAGCCGGUCUGAUGAGUCUUAUCAGAGACGAAACAGC is 1.95

So for GCUGUCACCGGUGCUUGGUACGUUAUAUUCAGCCGGUCUGAUGAGUCUGAAACAAGACGAAACAGC , the logged normalized RNA/DNA level with ligand (log10) turned out to be 2.04

For reference, reported normalized RNA/DNA level with ligand (log10) for GCUGUCACCGGUGCUUGGUACGUUAUAUUCAGCCGGUCUGAUGAGUCUGUGACAAGACGAAACAGC stands at 1.99

normalized RNA/DNA level with ligand (log10) recorded for this variant, GCUGUCACCGGUGCUUGGUACGUUAUAUUCAGCCGGUCUGAUGAGUCUGCUAAUAGACGAAACAGC , is 2.02

In plain terms, GCUGUCACCGGUGCUUGGUACGUUAUAUUCAGCCGGUCUGAUGAGUCUCAGGCUAGACGAAACAGC has a documented normalized RNA/DNA level with ligand (log10) of 2.01

Form field normalized RNA/DNA level with ligand (log10), entry GCUGUCACCGGUGCUUGGUACGUUAUAUUCAGCCGGUCUGAUGAGUCUGCAGUGAGACGAAACAGC : 2.02

Looking up GCUGUCACCGGUGCUUGGUACGUUAUAUUCAGCCGGUCUGAUGAGUCUCAAGUAAGACGAAACAGC , I found its normalized RNA/DNA level with ligand (log10) recorded as 2.03

Reported normalized RNA/DNA level with ligand (log10) of GCUGUCACCGGUGCUUGGUACGUUAUAUUCAGCCGGUCUGAUGAGUCUAAUGUAAGACGAAACAGC : 2.01

Notebook: GCUGUCACCGGUGCUUGGUACGUUAUAUUCAGCCGGUCUGAUGAGUCUACAUUUAGACGAAACAGC , normalized RNA/DNA level with ligand (log10) read as 2.02

// normalized RNA/DNA level with ligand (log10) lookup, variant = GCUGUCACCGGUGCUUGGUACGUUAUAUUCAGCCGGUCUGAUGAGUCUAUGGUCAGACGAAACAGC , result: 2.04

Given item GCUGUCACCGGUGCUUGGUACGUUAUAUUCAGCCGGUCUGAUGAGUCUUGCCGUAGACGAAACAGC , the value recorded as its normalized RNA/DNA level with ligand (log10) is 2.02

Consider GCUGUCACCGGUGCUUGGUACGUUAUAUUCAGCCGGUCUGAUGAGUCUUCUUCGAGACGAAACAGC . Its measured normalized RNA/DNA level with ligand (log10) is 2.05

Input GCUGUCACCGGUGCUUGGUACGUUAUAUUCAGCCGGUCUGAUGAGUCUUUGGGCAGACGAAACAGC . Output normalized RNA/DNA level with ligand (log10): 2.04
